Taken from patent US4563451A.

target: CCK receptor (pancreas) (Rattus norvegicus, UniProt P30551); construct: The whole pancreas of a male Sprague-Dawley rat; test: CCK receptor binding (pancreas) method; I-CCK-8 pancreas assay (CCK-antagonism); details: 125I-CCK binding, rat pancreas membranes, 37° C., 30 minutes; read-out: Anti-CCK Activity IC50
Sequence (P30551 whole entry): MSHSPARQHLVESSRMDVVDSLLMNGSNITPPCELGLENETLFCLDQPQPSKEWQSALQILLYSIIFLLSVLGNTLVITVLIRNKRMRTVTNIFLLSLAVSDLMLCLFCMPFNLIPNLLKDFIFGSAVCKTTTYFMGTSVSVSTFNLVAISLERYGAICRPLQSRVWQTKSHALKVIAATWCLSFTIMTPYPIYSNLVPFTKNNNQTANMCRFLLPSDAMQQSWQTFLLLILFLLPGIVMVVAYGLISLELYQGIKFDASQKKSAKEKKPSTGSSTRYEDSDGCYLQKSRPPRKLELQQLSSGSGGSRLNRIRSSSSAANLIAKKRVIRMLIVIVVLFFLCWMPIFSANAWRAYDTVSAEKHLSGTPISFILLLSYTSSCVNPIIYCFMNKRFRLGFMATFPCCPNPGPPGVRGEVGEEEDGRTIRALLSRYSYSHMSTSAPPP
pIC50: −log10 of the molar value.
observable: pIC50

CC(C)CC1C(=O)N2c3ccccc3C(O)(CC3NC(=O)c4ccccc4-n4c3nc3ccccc3c4=O)C2N1C(=O)OCc1ccccc1 (stereo not drawn) :: 5.30

[a] CCN1[C@H]2N(C(=O)[C@@H]1CC(C)C)c1ccccc1[C@@]2(O)C[C@@H]1NC(=O)c2ccccc2N2C(=O)c3ccccc3NC12 (stereo partly drawn) [Example 3, hemihydrate]
[b] CC(C)C[C@H]1C(=O)N2c3ccccc3[C@@](O)(C[C@@H]3NC(=O)c4ccccc4-n4c3nc3ccccc3c4=O)[C@H]2N1C(=O)C(CCCCNC(=O)OCc1ccccc1)NC(=O)OC(C)(C)C (stereo partly drawn) [Example 9, hydrate]
IN: Could you tell me which of these two has the smaller pIC50 figure? First: a Second: b In your reply, give the label of the chosen option.
OUT: b
